assay: log P determination by HPLC (reversed-phase C18), EEC Directive 79/831 Annex V.A8; type: physicochemical; settings: reversed-phase C18 HPLC column; pH 2.3; HPLC, reversed-phase C 18, 43° C., 0.1% aqueous phosphoric acid/acetonitrile; read-out: log P (pH 2.3)
MEASURE_NAME: chromatographic logP

A: CC(=O)O[C@H]1CCC[C@H]1OC(=O)CSc1nccc(-c2ccccn2)n1 [Example 248]
B: CC(C)(C)C(Cl)COC(=O)CSc1nccc(-c2ccccn2)n1 (stereo not shown) [Example 205]
C: COC(=O)C[S+]([O-])c1nccc(-c2ccccn2)n1 (stereo not shown) [Example 108]
D: CCOC(=O)CSc1nccc(-c2cc(OC)ccn2)n1 [Example 261]
Arrange by chromatographic logP, high to low. Response field: labels, in requested order.
B, A, D, C

P: O=C(CSc1nccc(-c2ccccn2)n1)OCC#CCCl [Example 207]
Q: O=C(CSc1nccc(-c2ccccn2)n1)OCC1CCC(=O)O1 (stereo not shown) [Example 206]
Endpoint returns the identifier whose chromatographic logP is numerically larger, either P or Q . State your choice using its label.
P
(P: 2.61, Q: 1.64)

====

assay: log P determination by HPLC (reversed-phase C18), EEC Directive 79/831 Annex V.A8; format: physicochemical; settings: reversed-phase C18 HPLC column; pH 2.3; HPLC, reversed-phase C 18, 43° C., 0.1% aqueous phosphoric acid/acetonitrile; read-out: log P (pH 2.3)
MEASURE_NAME: chromatographic logP

# example entries with known answers
- COMPOUND: "CC(C)(C)C1(COC(=O)CSc2nccc(-c3ccccn3)n2)COC1 [Example 211]"
  chromatographic logP: 2.75
- COMPOUND: "O=C(CSc1nccc(-c2ccccn2)n1)OCCn1ccnn1 [Example 210]"
  chromatographic logP: 1.42
- COMPOUND: "C/C=N/OCCOC(=O)CSc1nccc(-c2ccccn2)n1 [Example 214]"
  chromatographic logP: 2.13

A: CCOC(=O)C1CC1COC(=O)CSc1nccc(-c2ccccn2)n1 (stereo not shown) [Example 199]
B: O=C(CSc1nccc(-c2ccccn2)n1)OCCN1CCNC1=S [Example 160]
Between the entries labelled A and B , which has a larger chromatographic logP value on record? Return value: the label identifying the chosen record.
A
(A: 2.64, B: 1.59)

A: CC(C)(F)COC(=O)CSc1nccc(-c2ccccn2)n1 [Example 196]
B: COC(=O)CC(=O)CSc1nccc(-c2ccccn2)n1 [Example 14]
Which entry has a larger number for chromatographic logP, A or B ? Please reply using the label of the selected record.
A
(A: 2.66, B: 1.76)

P: COC(C)(C)COC(=O)CSc1nccc(-c2ccccn2)n1 [Example 179]
Q: O=C(CSc1nccc(-c2ccccn2)n1)OCCc1ccccc1 [Example 83]
Select one. Lower chromatographic logP: P or Q Output the label that corresponds to your choice.
P

====

experiment: log P determination by HPLC (reversed-phase C18), EEC Directive 79/831 Annex V.A8; format: physicochemical; details: reversed-phase C18 HPLC column; pH 2.3; HPLC, reversed-phase C 18, 43° C., 0.1% aqueous phosphoric acid/acetonitrile; read-out: log P (pH 2.3)
MEASURE_NAME: chromatographic logP

A: O=C(CSc1nccc(-c2ccccn2)n1)OCc1ccc(Cl)nc1
B: C=CC(C)(C)COC(=O)CSc1nccc(-c2ccccn2)n1
C: NC(=O)COC(=O)CSc1nccc(-c2ccccn2)n1
Please produce an ascending ranking of these compounds based on chromatographic logP. Submit the labels in the order that the ranking request calls for.
C, A, B
(C: 1.11, A: 2.31, B: 3.48)

I: CCC(=O)NCCCOC(=O)CSc1nccc(-c2ccccn2)n1
II: CC(C)=CCOC(=O)CSc1nccc(-c2ccccn2)n1
Choose between I and II : whose measured chromatographic logP value is numerically larger? // caller expects the label of the chosen entry
II
(II: 3.18, I: 2.04)

A: CSc1nccc(-c2ccccn2)n1
B: Cn1nnnc1CSc1nccc(-c2ccccn2)n1
I'm curious whether A or B has the smaller chromatographic logP number. Which is it? # respond with the chosen item's label
B
